Just for reference, ChEMBL document CHEMBL3885861 is where these values come from.

# Organism: Rattus norvegicus
# experiment: Open TG-GATES - Regimen: Single
# Type: toxicity, organism-based, Sprague-Dawley
# Parameters: regimen Single, gender Male, age 6 weeks
# study_conditions: in vivo, po, 0 mg/kg, 24 h, tissue Plasma, route gavage, dose level Control
readout_type: TC (mg/dL)

O=C(O)COc1nn(Cc2ccccc2)c2ccccc12; 77.2
CC[C@@H](CO)NCCN[C@@H](CC)CO; 73.4
CC(=O)Nc1ccc2c(c1)Cc1ccccc1-2; 64.2
CCN(CC)N=O; 86.6
CC(=O)N1CCN(c2ccc(OCC3COC(Cn4ccnc4)(c4ccc(Cl)cc4Cl)O3)cc2)CC1 (configuration not stated); 76.6
CC(C)Cc1ccc(C(C)C(=O)O)cc1 (configuration not stated); 79.4
CC(CCc1ccccc1)NCC(O)c1ccc(O)c(C(N)=O)c1 (configuration not stated); 88.4
